Collected Percent Effect values appear next to each entry.
measured-target: Tyrosyl-tRNA synthetase, putative (Trypanosoma cruzi (strain CL Brener)) (UniProt Q4DSP6)
assay-protocol: Trypanosoma cruzi tyrosyl tRNA synthetase (TcYRS) SOP
Format: functional
Set-up: scale not given: direction of the effect not stated beside the values
measurement-conditions: 30 µM
property: Percent Effect (%)

- CCc1cnc2c(c1NCc1cccc(OC)c1)c(=O)n(C)c(=O)n2C: 14.1
- CN1CC(=O)N(c2ccsc2)CC12CCN(C(=O)c1ccccc1)C2 (stereo not given): 7.69
- c1cc(CN2Cc3nnn(CC4CC4)c3C(COCC3CC3)C2)co1 (stereo not given): 12.8
- OC(CNCCn1cccn1)c1ccc(F)c(F)c1 (stereo not given): 12.8
- O=C(O)c1ccc(S(=O)(=O)Nc2ccc(Cl)c(F)c2)c(F)c1: -18.5

* * *

measured-target: Tyrosyl-tRNA synthetase, putative (Trypanosoma cruzi (strain CL Brener))
Sequence (whole entry): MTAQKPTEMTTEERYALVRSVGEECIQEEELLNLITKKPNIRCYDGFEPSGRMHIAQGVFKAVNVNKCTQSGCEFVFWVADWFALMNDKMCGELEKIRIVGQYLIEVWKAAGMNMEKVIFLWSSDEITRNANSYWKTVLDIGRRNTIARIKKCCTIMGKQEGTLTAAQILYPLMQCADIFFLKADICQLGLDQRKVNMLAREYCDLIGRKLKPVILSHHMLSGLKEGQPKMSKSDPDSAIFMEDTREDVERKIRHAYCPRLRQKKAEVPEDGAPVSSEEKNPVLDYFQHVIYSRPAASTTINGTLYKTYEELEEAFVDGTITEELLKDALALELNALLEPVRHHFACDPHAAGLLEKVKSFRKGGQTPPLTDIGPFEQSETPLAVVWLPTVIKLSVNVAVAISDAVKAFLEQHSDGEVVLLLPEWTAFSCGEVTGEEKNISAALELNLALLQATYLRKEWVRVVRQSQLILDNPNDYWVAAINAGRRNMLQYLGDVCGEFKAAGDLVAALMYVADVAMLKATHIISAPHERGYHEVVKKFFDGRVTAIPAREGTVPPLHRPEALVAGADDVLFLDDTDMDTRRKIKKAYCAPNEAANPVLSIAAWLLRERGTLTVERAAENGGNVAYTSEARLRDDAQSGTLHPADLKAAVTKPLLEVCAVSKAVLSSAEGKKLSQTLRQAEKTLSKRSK
assay-protocol: Trypanosoma cruzi tyrosyl tRNA synthetase (TcYRS) _High Tyrosine SOP; also: in the data most compounds retested in dose-response had high values
Format: functional
Design: scale not given: direction of the effect not stated beside the values
measurement-conditions: 30 µM
property: Percent Effect (%)

* Cc1cccc(N2CC[C@@H]3CN(Cc4csc(C)n4)CCO[C@@H]3C2)n1 | 1.58
* OCC1CCCN1c1cc(N2CCC(OC3CCCC3)CC2)ncn1 (configuration not stated) | 7.62
* CS(=O)(=O)N1CCc2nc(NC(=O)Nc3c(F)cccc3F)sc2C1 | 4.3
* COCCOc1cccc(C(=O)N2CCCC(n3ccnc3C)C2)c1 (configuration not stated) | 0
* Cc1ncc2c(n1)CN(CCCc1nc3ccccc3o1)CC2 | 22.6
* Cc1nc(C)n(CC2CCCN2Cc2nc(C3CC3)no2)n1 (configuration not stated) | 2.45
* Cc1noc(C)c1CN(C)C(=O)NC1CCN(C2CC2)CC1 | 2.39
* O=C(O)C1CCCCN1C(=O)c1cccc(C(F)(F)F)c1 (configuration not stated) | 4.43
* COc1cc(CNCc2ccnc(N3CCOCC3)c2)cc(Cl)c1OC | 5.42
* Cc1nc(C)n(CC2CCCCN2CC(=O)NC2CCOCC2)n1 (configuration not stated) | 3.88
* COc1cccc(CCC(=O)N2CCCC(n3cc(C)cn3)C2)c1 (configuration not stated) | -5.21
* Cc1nc(C)n(CC2CCCN(CC(=O)Nc3nncs3)C2)n1 (configuration not stated) | 1.47
* Cn1nc2c(cc1=O)CN(Cc1nnc(C3CC3)o1)CC2 | -11
* O=C(CCCc1nnc(-c2ccccc2)o1)N1CCN(CCO)CC1 | 2.46
* CCNC(=O)c1ncn2c1CN(C)S(=O)(=O)c1ccccc1-2 | 1.04
* O=C(O)CCc1cccc(C2CCCN2Cc2ccc(F)c(F)c2)n1 (configuration not stated) | 6.45
* CN(C)C[C@H]1OC[C@@H]2CCN(S(=O)(=O)c3ccccc3)C[C@@H]21 | -2.63
